Ref: the EternaBench riboswitch data

# System: MS2 coat protein
# EXPERIMENTAL DETAILS: apparent Kd, MS2 coat protein; higher = weaker binding; RNA-MaP array
# RUN PARAMETERS: designed as: OFF switch for tryptophan; no ligand
Returns Y if the recorded apparent Kd is greater than or equal to 20 nM, and N otherwise.

CGCUACAUAGCGGCCGCCACUGUCAUGGCUACGAUAGGUCACUCGUACAUGAGGAUCACCCAUGUCAGGACCGGGCUAUCCUCGC : Y
CAAUCUACCACCGGCCUACUGUACACUCGCCGAGGACCGGUACGGCCGCCACUCGACGUUCGACAUGAGGAUCACCCAUGUGGGU : Y
GAGGCACGGUCGGCCGCCACUACAGCAGUGGUCCGCCAAGCGAGGUACAUGAGGAUCACCCAUGUUAGGACCGGGACCUGUUUUU : Y
CCCACAAGCACGGCCGCCACUAUAUUAAUUACUGUCCUAGAACAUGAGGAUCACCCAUGUUAAUGUAGGACCGGGUGCGGGCCCG : N

Could you now look at the following sequence, please?
Check this sequence for apparent Kd at or above 20 nM: `UUCACGGGCACGGCCGCCACUAACCAACAUGAGGAUCACCCAUGUGUAUUGGACGACCUCUUUGCUAGGACCGGGUGUAUGGUUC`
Y

---

Some sequences, each annotated with its measured apparent Kd.
# Test system: MS2 coat protein
# EXPERIMENTAL DETAILS: apparent Kd, MS2 coat protein; higher = weaker binding; RNA-MaP array; FMN 200 µM where present
# RUN PARAMETERS: ligand present: flavin mononucleotide; designed as: OFF switch for flavin mononucleotide
// return numeric value only (unit: nM, not printed)

Summary: `ACGUAUAGAGGAUAUACAGAAUAUUACAUGAGGAUCACCCAUGUUCUUCAAUGUAUAUUUGUAGAAGGCUAAUGAA` , MS2 coat protein, apparent Kd = 281

Summary: `CGUCCACAUGAGGAUCACCCAUGUGAGGAUAUCGAUGUCCCAGGGCGGGUGCGGGACUCGAGAAGGCGCUAGGU` , MS2 coat protein, apparent Kd = 29

Summary: `UCACGGGACUAAGGAUAUACAUGAUCCAUUUUUGUAGAAGGUAGAAUGUUAGAUCAUAAACUAAACAUGAGGAUCACCCAUGUU` , MS2 coat protein, apparent Kd = 22.5

Summary: `AAGAAGGCAGGAUAUACAAAAUAAAAGAAAAGAAAGAAAGAACAUGAGGAUCACCCAUGUAGAAGGGUCAAGAA` , MS2 coat protein, apparent Kd = 66.1

---

# Test system: MS2 coat protein
# EXPERIMENTAL DETAILS: apparent Kd, MS2 coat protein; higher = weaker binding; RNA-MaP array; FMN 200 µM where present
# RUN PARAMETERS: designed as: ON switch for flavin mononucleotide; no ligand
ASSAY ENDPOINT: apparent Kd (nM)
// return numeric value only (unit: nM, not printed)

GGACGUCGCAUUAACAUGAGGAUCACCCAUGUCAAAGGACAUGAGGAUAUGGAUCCUAAUUGGAUCCAGAAGGCAUGGACGUCC : 485

// field: apparent Kd; key: `GCUGUCGCAUGAGGAUAUGGUCAGCUUUGCUGACCAGAAGGCAUGUCAAUAGACAUGAGGAUCACCCAUGUAGUUCGGGCGGCU` ; value = 849

// field: apparent Kd; key: `GUAGCAUGCAGGCAGGAUAUUCAUAUUAAAACAUGAGGAUCACCCAUGUAGGCCAAAAGGCCUUGGGAGAAGGGCCACAUGCUAC` ; value = 636

// field: apparent Kd; key: `CCUGUCGCAUGAGGAUAUGGUCAGCUUUGCUGACCAGAAGGCAUGUCGAUAGACAUGAGGAUCACCCAUGUAGUAAAGACAGGA` ; value = 831

---

# Tested on: MS2 coat protein
# EXPERIMENTAL DETAILS: apparent Kd, MS2 coat protein; higher = weaker binding; RNA-MaP array; FMN 200 µM where present
# RUN PARAMETERS: ligand present: flavin mononucleotide; designed as: OFF switch for flavin mononucleotide
Some sequences, each annotated with its measured apparent Kd.
// return numeric value only (unit: nM, not printed)

Here's what some known entries look like.
ACCUCACAUGAGGAUCACCCAUGUCAGGAUAUCUGAUGUAGUCGCGUUCCCGACGCUAAGAGAAGGGACGUUGA : 35.1
GCACGCUGGCGAGGAUAUAGACAUGAGGAUCACCCAUGUGGCGCACAUCGGGCCCUAGUCCUCAGCUAGAAGGCGCCUGUGAUA : 228
CCGCAAAAGGAGGAUAUCGUAUCGGAUACGAUACGAGAAGGCUUUACAUGAGGAUCACCCAUGUGUCCUAGCGG : 19.2
GCACGGAUGGUAGGAUAUCAUUGCGAUUAGCUAUGAGAAGGGCCACAUGAGGAUCACCCAUGUCCUCUAAUUAGCCUUCCGUGC : 101

// field: apparent Kd; key: `AAGAUGUGAGGAUAUCACGAGAGCGUCAAACGGACACUCUCUGAGAAGGCACAUGAGGAUCACCCAUGUCCAAA` ; value = 295

// field: apparent Kd; key: `CAGGUAGACUGAGGAUAUACAUGACUUAGUCUAUCUAGGUCAUAAACCACAUGAGGAUCACCCAUGUAGAAGGCAGUCUGCCUG` ; value = 19.8

// field: apparent Kd; key: `AAUAAGCUAGGAUAUACAUGAGGAUCACCCAUGUGAGGGCACGGCCGGCGCGGGCCCGGUAGAAGGAGUCAUAA` ; value = 23.6

---

# Tested on: MS2 coat protein
# EXPERIMENTAL DETAILS: apparent Kd, MS2 coat protein; higher = weaker binding; RNA-MaP array; theophylline 2 mM where present
# RUN PARAMETERS: ligand present: theophylline; designed as: ON switch for theophylline
ASSAY ENDPOINT: apparent Kd (µM)
// return numeric value only (unit: µM, not printed)

Here's what some known entries look like.
AACCGAGGCUAUCCACAAAGAAAAUGUGAUACCAGAAUAAUUUUAUUCCCUUGGCAGCAUGACAUGAGGAUCACCCAUGUGUCUU : 0.0356
GGUAGCAGGACUGAUACCAGUCCAGCGAAUCAUACGACGCAACAUGAGGAUCACCCAUGUGACCCUUGGCAGCAGUCUGCUACCG : 0.0128
UAAAACAUGAGGAUCACCCAUGUAAUUGAUACCAGAGUGAUGAUCCUCCCUUGGCAGCAAAUAACGCAUUGGAAACAAUGCGAAA : 0.189
ACAUGUCUUAUAGAUACCAGACAGGACAUGAGGAUCACCCAUGUAAUGUAUACAUGCAGAGUCCCUUGGCAGCUAAGGUCAUAGA : 0.0663

Now look at this entry.
// field: apparent Kd; key: `AAGGUGAUCCGUGAUACCAGCUCAACAUGAGGAUCACCCAUGUAACGGACGAAAGUCCGGAGCCCUUGGCAGCACGGUAAUAAUA` ; value = 0.0114

---

# System: MS2 coat protein
# EXPERIMENTAL DETAILS: apparent Kd, MS2 coat protein; higher = weaker binding; RNA-MaP array
# RUN PARAMETERS: ligand present: theophylline; designed as: ON switch for theophylline
Returns y if the recorded apparent Kd is greater than or equal to 40 nM, and n otherwise.

Record excerpt, results attached:
AUGUGCAAUACGGAUACCAGCCCGUGUAGAUACAUGAGGAUCACCCAUGUCAAUGUAAAUGGCCCUUGGCAGCCGUUUGGGAGGC : n
GAAUCUACAAACGAUACCAGAUCCGGCUGCCACAUGAGGAUCACCCAUGUCUAGCGACUCAUCCCUUGGCAGCGUGUGCAUCCCG : y
AUCUACGUGGGUGAUACCAGCUGGUUAGUACACAUGAGGAUCACCCAUGUGCAGGCAGGCAGCCCUUGGCAGCACCGCAGUGGCU : n
UACCGGUGACUCGAUACCAGUCCUCUAAAAUACAUGAGGAUCACCCAUGUAACCUUCCCAGACCCUUGGCAGCGACACAUGGAUA : n
UUGAACAUGAGGAUCACCCAUGUGGAUGAUACCAGCUAAAACAUAAGCCCUUGGCAGCAUUAAAAUGAAAUAUCGAAAAGGAAAG : y

Could you now look at the following sequence, please?
Check this sequence for apparent Kd at or above 40 nM: `AUGAAGCUAAGAGAUACCAGUGACCACAGAUACAUGAGGAUCACCCAUGUCUCAAAUUGUCACCCUUGGCAGCUCACUAUCGAAG`
n

---

# Tested on: MS2 coat protein
# EXPERIMENTAL DETAILS: apparent Kd, MS2 coat protein; higher = weaker binding; RNA-MaP array; FMN 200 µM where present
# RUN PARAMETERS: ligand present: flavin mononucleotide; designed as: OFF switch for flavin mononucleotide
Some sequences, each annotated with its measured apparent Kd.
// return numeric value only (unit: nM, not printed)

Here's what some known entries look like.
CGAGUGUAAGGAUAUUCGGCGCCAGGGAACAACCUAGCGUAGAAGAAGGUACAUGAGGAUCACCCAUGUGGUUA : 22.4
UGGGCGAGCCCAGUACUCACACAUGAGGAUCACCCAUGUGACGAGGAUAUAGACAGCGAUGCGUACUAGAAGGCGUCACGGUAA : 46.2
AGUACUACAGGAUAUACGAGGGAGGUCCACGUGACCCUUAUACAUGAGGAUCACCCAUGUAGAAGGGUAGUACA : 16.4
GUCGUGCGGCUUUGCUGUACGAGUACAUGAGGAUCACCCAUGUAGGAUAUGGUUCGCUUUGCGUGCCAGAAGGGCGUGCGUUGU : 28.1
AGGCAAUCAGGAUAUACAUGAGGAUCACCCAUGUGUACAAAGCACAUCCGAUCUAGAUGUAGAAGGGAUAUGCA : 35.8

Now look at this entry.
// field: apparent Kd; key: `AGCAUGCUAGGAUAUACGGGACAUUAGGGUUUGUCGUGUGGACAUGAGGAUCACCCAUGUAGAAGGAGCGUGCA` ; value = 228
